system: B. subtilis 168; assay: Bliss interaction score (quartile over a dose matrix) (fitness difference); higher = more antagonism (negative = synergy); details: main component drawn;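 also: first quartile when negative (synergy) and third quartile when positive (antagonism)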
measurement.name: Bliss interaction score
Simply state the number, no unit and no words.

The examples below pair each entry with its known result.
{"compound": "CC(=O)Oc1ccccc1C(=O)O [Acetylsalicylicacid] + CC(C1CCC(C(O1)OC2C(CC(C(C2O)OC3C(C(C(CO3)(C)O)NC)O)N)N)N)NC", "Bliss interaction score": 0.286}
{"compound": "O=C(O)c1cn(C2CC2)c2cc(N3CCNCC3)c(F)cc2c1=O [Ciprofloxacin] + CC(C1CCC(C(O1)OC2C(CC(C(C2O)OC3C(C(C(CO3)(C)O)NC)O)N)N)N)NC", "Bliss interaction score": 0.19}
{"compound": "N#CC(C#N)=NNc1cccc(Cl)c1 [CCCP] + CC(C1CCC(C(O1)OC2C(CC(C(C2O)OC3C(C(C(CO3)(C)O)NC)O)N)N)N)NC", "Bliss interaction score": 0.259}

[Q] Lab request: please report Bliss interaction score under test system B. subtilis 168 for C[C@H]1c2cccc(O)c2C(=O)C2=C(O)[C@]3(O)C(=O)C(C(N)=O)=C(O)[C@@H](N(C)C)[C@@H]3[C@@H](O)[C@@H]21 [Doxycycline] + CC(C1CCC(C(O1)OC2C(CC(C(C2O)OC3C(C(C(CO3)(C)O)NC)O)N)N)N)NC;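 also: first quartile when negative (synergy) and third quartile when positive (antagonism)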
[A] 0.213
